Numbers sourced from BindingDB's records for doi:10.1021/jm990229t.

reported endpoint: pIC50
pIC50 here is simply -log10 of the concentration when that concentration is written in mol/L.

// returns pIC50 for CC(=O)N[C@@H](Cc1ccc(OP(=O)(O)O)cc1)C(=O)N[C@@H](CCC(N)=O)c1nc(Cc2c(C)cc(C)cc2C)no1 with Proto-oncogene tyrosine-protein kinase Src (Homo sapiens, UniProt P12931); value = 3.51

----------
pIC50: −log10 of the molar value.
reported endpoint: pIC50

Sample CC(=O)N[C@@H](Cc1ccc(OP(=O)(O)O)cc1)C(=O)N[C@@H](CCC(N)=O)c1nc(Cc2c(C)cc(C)cc2C)no1 , system: Tyrosine-protein kinase ZAP-70 (Homo sapiens). Its pIC50 is < 3.30
